FACS-Seq fitted mean (log10) values, listed per item
B1: library; a variant is named by its letters at N, in order (parent)
chain: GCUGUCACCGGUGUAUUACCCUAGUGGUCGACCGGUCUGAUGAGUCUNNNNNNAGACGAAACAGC

Variants of: B1
Assay: FACS-Seq fitted mean relative fluorescence mCherry/BFP with ligand (log10 relative fluorescence); ligand: hypoxanthine (xanthine aptamer); ligand concentration (+) FACS-Seq: 5 mM; higher = higher reporter protein expression
Details: HEK293T, ligand present: yes

# annotated cases, reported FACS-Seq fitted mean (log10) shown
Query: FACS-Seq fitted mean (log10); subject: `AAGAUA`
Reply: 0.339

Query: Now consider `GGUGCC` .
Reply: 0.76

Query: `AUUAAU` , same question.
Reply: 0.566

Next:
Query: Bench note: what FACS-Seq fitted mean (log10) did `CGAAAC` show?
Reply: 0.6

Query: Then `AUAUCG` ?
Reply: 0.756

Query: Record: `AUACAG`
Reply: 0.561

Measured values drawn from the supplement of paper PMC6757056 for this set.
